System: Acinetobacter baumannii
Assay: MIC, CLSI microdilution (Tables 1 and 6)
Assay type: cell-based
Details: ATCC17978, ATCC 17978, Table 1, read-out: MIC of Iron Chelators
property-label: MIC (µg/mL)
Express it in µg/mL; write the number only.

Worked examples follow.
| compound | assay-system | unit-of-measurement | MIC |
| --- | --- | --- | --- |
| OCCN1CCN(Cc2ccc(O)c3ncccc23)CC1 [VK28] | Acinetobacter baumannii | µg/mL | 125 |
| CNC(=O)c1c(O)c(=O)cc(C)n1C1CC1 [Apo6619] | Acinetobacter baumannii | µg/mL | 250 |
| Cc1c(O)c(=O)ccn1C [ApoL1, 3-hydroxy-1,2-dimethyl-4(1H)-pyridone] | Acinetobacter baumannii | µg/mL | 125 |

Would you kindly look at the next entry?
INPUT: Give the value of MIC reported for the following: c1ccc(-c2ccccn2)nc1 [DIP, 2,2-dipyridyl]
OUTPUT: 64

* * *

Let's look at some compounds and their measured MIC.
Tested on: clinical isolates of A. baumannii
Test: MIC for clinical isolates in CAMHB media (Table 3)
Type: cell-based
Details: Acinetobacter baumannii, AB2828, read-out: MIC of Iron Chelators

The following compounds have reported results that may help.
| compound | assay-system | result |
| --- | --- | --- |
| Cc1c(O)c(=O)ccn1C [ApoL1, 3-hydroxy-1,2-dimethyl-4(1H)-pyridone] | clinical isolates of A. baumannii | 500 µg/mL |
| OCCN1CCN(Cc2ccc(O)c3ncccc23)CC1 | clinical isolates of A. baumannii | 250 µg/mL |

INPUT: Give MIC for the following compound: `CNC(=O)c1c(O)c(=O)cc(C)n1C1CC1`
OUTPUT: 500 µg/mL

INPUT: Entry `OCCN1CCN(CCc2ccc(O)c3ncccc23)CC1` needs its MIC filled in; supply it.
OUTPUT: 500 µg/mL

* * *

Tested on: E. coli
Assay: MIC, CLSI microdilution (Tables 1 and 6)
Format: cell-based
Conditions: Escherichia coli, ATCC35218; ATCC 35218; Table 1; read-out: MIC of Iron Chelators
MIC values by entry
Could you give me the number in µg/mL? Just the number is fine.

Some entries whose results are on file:
| compound | unit-of-measurement | MIC |
| --- | --- | --- |
| c1ccc(-c2ccccn2)nc1 | µg/mL | 64 |
| Cc1c(O)c(=O)ccn1C [ApoL1, 3-hydroxy-1,2-dimethyl-4(1H)-pyridone] | µg/mL | 500 |

# evaluate next
INPUT: Give recorded MIC. `CNC(=O)c1c(O)c(=O)cc(C)n1C1CC1`
OUTPUT: 250

* * *

Test system: clinical isolates of A. baumannii
Test: MIC for clinical isolates in CAMHB media (Table 3)
Format: cell-based
Settings: Acinetobacter baumannii, AB3560, read-out: MIC of Iron Chelators
property-label: MIC (µg/mL)
Return type: number; implicit unit µg/mL.

Sample answers from the record:
| compound | property-label | recorded-number |
| --- | --- | --- |
| OCCN1CCN(CCc2ccc(O)c3ncccc23)CC1 [Compound 4] | MIC | 500 |
| CNC(=O)c1c(O)c(=O)cc(C)n1C1CC1 [Apo6619] | MIC | 500 |
| Cc1c(O)c(=O)ccn1C [ApoL1, 3-hydroxy-1,2-dimethyl-4(1H)-pyridone] | MIC | 500 |

Next compound, MIC to be filled in.
INPUT: Respond only with MIC recorded for OCCN1CCN(Cc2ccc(O)c3ncccc23)CC1 [VK28]
OUTPUT: 250

* * *

System: clinical isolates of A. baumannii
Assay: MIC for clinical isolates in RPMI (low iron) media (Table 4)
Assay type: cell-based
Settings: Acinetobacter baumannii, AB4957, read-out: MIC of Iron Chelators
property-label: MIC (µg/mL)
Your answer is read as µg/mL, so omit the unit and give the number.

| compound | unit-of-measurement | MIC |
| --- | --- | --- |
| OCCN1CCN(CCc2ccc(O)c3ncccc23)CC1 | µg/mL | 125 |
| CNC(=O)c1c(O)c(=O)cc(C)n1C1CC1 | µg/mL | 250 |
| OCCN1CCN(Cc2ccc(O)c3ncccc23)CC1 | µg/mL | 8 |

INPUT: Please give the documented MIC of Cc1c(O)c(=O)ccn1C [ApoL1, 3-hydroxy-1,2-dimethyl-4(1H)-pyridone]
OUTPUT: 125

* * *

Test system: clinical isolates of A. baumannii
Assay: MIC for clinical isolates in CAMHB media (Table 3)
Format: cell-based
Conditions: Acinetobacter baumannii, AB4026, read-out: MIC of Iron Chelators
property-label: MIC (mg/L)
Express the result in mg/L but write the number alone.

Sample answers from the record:
| compound | assay-system | MIC, mg/L |
| --- | --- | --- |
| OCCN1CCN(CCc2ccc(O)c3ncccc23)CC1 [Compound 4] | clinical isolates of A. baumannii | 500 |
| CNC(=O)c1c(O)c(=O)cc(C)n1C1CC1 [Apo6619] | clinical isolates of A. baumannii | 500 |
| OCCN1CCN(Cc2ccc(O)c3ncccc23)CC1 [VK28] | clinical isolates of A. baumannii | 250 |

INPUT: Please supply the value of reported MIC for the item Cc1c(O)c(=O)ccn1C [ApoL1, 3-hydroxy-1,2-dimethyl-4(1H)-pyridone]
OUTPUT: 250

* * *

Test system: clinical isolates of A. baumannii
Assay: MIC for clinical isolates in CAMHB media (Table 3)
Format: cell-based
Details: Acinetobacter baumannii, AB5674, read-out: MIC of Iron Chelators
property-label: MIC (µg/mL)
Report the figure in µg/mL without appending any unit label.

Worked cases, answers included:
| molecule | assay-system | property-label | recorded-number |
| --- | --- | --- | --- |
| OCCN1CCN(Cc2ccc(O)c3ncccc23)CC1 | clinical isolates of A. baumannii | MIC | 250 |
| Cc1c(O)c(=O)ccn1C [ApoL1, 3-hydroxy-1,2-dimethyl-4(1H)-pyridone] | clinical isolates of A. baumannii | MIC | 250 |
| OCCN1CCN(CCc2ccc(O)c3ncccc23)CC1 | clinical isolates of A. baumannii | MIC | 500 |

# context switch: different molecule, same MIC
INPUT: Return value of MIC for input `CNC(=O)c1c(O)c(=O)cc(C)n1C1CC1` , no commentary.
OUTPUT: 250

* * *

Test system: clinical isolates of A. baumannii
Assay: MIC for clinical isolates in CAMHB media (Table 3)
Type: cell-based
Conditions: Acinetobacter baumannii, AB4878, read-out: MIC of Iron Chelators
property-label: MIC (µg/mL)
Could you give me the number in µg/mL? Just the number is fine.

Study these solved cases before continuing.
| molecule | property-label | recorded-number |
| --- | --- | --- |
| Cc1c(O)c(=O)ccn1C [ApoL1, 3-hydroxy-1,2-dimethyl-4(1H)-pyridone] | MIC | 250 |
| OCCN1CCN(Cc2ccc(O)c3ncccc23)CC1 | MIC | 500 |
| OCCN1CCN(CCc2ccc(O)c3ncccc23)CC1 | MIC | 500 |

Here is the next item to consider.
INPUT: Quote MIC with test system clinical isolates of A. baumannii for `CNC(=O)c1c(O)c(=O)cc(C)n1C1CC1`
OUTPUT: 500

* * *

Tested on: K. pneumonia
Experiment: MIC in RPMI1640 media (Table 2)
Assay type: cell-based
Settings: Klebsiella pneumoniae, ATCC700603, ATCC 700603, read-out: MIC of Iron Chelators
List of MIC values.
Please state the figure in µg/mL; there is no need to write the unit.

| molecule | MIC [µg/mL] |
| --- | --- |
| CNC(=O)c1c(O)c(=O)cc(C)n1C1CC1 [Apo6619] | 500 |
| Cc1c(O)c(=O)ccn1C [ApoL1, 3-hydroxy-1,2-dimethyl-4(1H)-pyridone] | 250 |
| c1ccc(-c2ccccn2)nc1 [DIP, 2,2-dipyridyl] | 250 |

Switching to the query record.
INPUT: Lab note: record MIC of OCCN1CCN(Cc2ccc(O)c3ncccc23)CC1 [VK28] tested on K. pneumonia.
OUTPUT: 16

* * *

Tested on: clinical isolates of A. baumannii
Assay: MIC for clinical isolates in RPMI (low iron) media (Table 4)
Format: cell-based
Conditions: Acinetobacter baumannii, AB4498, read-out: MIC of Iron Chelators
The compounds listed here are annotated with their MIC.
Number in µg/mL, nothing else.

| compound | assay-system | recorded-number |
| --- | --- | --- |
| OCCN1CCN(CCc2ccc(O)c3ncccc23)CC1 | clinical isolates of A. baumannii | 64 |

INPUT: Quote MIC reported for `OCCN1CCN(Cc2ccc(O)c3ncccc23)CC1` please.
OUTPUT: 8

INPUT: Identify measured MIC associated with Cc1c(O)c(=O)ccn1C [ApoL1, 3-hydroxy-1,2-dimethyl-4(1H)-pyridone]
OUTPUT: 125

INPUT: Give MIC for the following compound: `CNC(=O)c1c(O)c(=O)cc(C)n1C1CC1`
OUTPUT: 250
